# Assay: S-(1) pharmacokinetics in mouse, plasma and brain levels after single IV dose
# Assay type: in vivo, CD-1 mice
# Condition summary: CD-1, mouse; Plasma; single IV 20 mg/kg
Parameter: MRT
Hi, when you answer, please include the unit after the number. Thanks!

Q: Record request: MRT value, item C=C[C@H]1O[C@H]2C[C@H]3OC[C@@]3(OC(C)=O)[C@H]3[C@H](OC(=O)c4ccccc4)[C@]4(C(C)(C)O)CC(OC(=O)[C@H](O)C(CC(C)C)NC(=O)OC(C)(C)C)C(C)=C4[C@H](OC(C)=O)[C@H](O1)[C@]23C (stereo partly drawn) [S-(1)]
A: 17.6 h
